Here's a roundup of IC50 values tested on Monoglyceride lipase (Mus musculus, UniProt O35678), taken from various published works.
experimentalReadout: IC50

>>> result("Cc1ccc2[nH]c(C(=O)N3CCCC34CCN(C(=O)OC(C(F)(F)F)C(F)(F)F)CC4)cc2c1")
"< 100 nM"
>>> result("Cn1ccc(C(=O)N2CCCC23CCN(C(=O)OC(C(F)(F)F)C(F)(F)F)CC3)n1")
"100 to 1000 nM"
>>> result("CC(=O)N(C)c1cnn(C(=O)N2CCN(Cc3ccc(Cl)cc3)CC2)c1")
"100 to 1000 nM"
>>> result("CC(=O)N(C)c1cnn(C(=O)N2CC3CN(Cc4cc(Cl)cc(N5CCN(C6CC6)CC5)c4)CC3C2)c1 (stereo not drawn)")
"≤ 100 nM"
>>> result("CC(=O)N(C)c1cnn(C(=O)N2CC3CN(Cc4cccc(OCc5ccccc5)c4)CC3C2)c1 (stereo not drawn)")
"≤ 100 nM"
>>> result("CC(=O)N1CCCc2cccc(CN3CCC4(CC3)CCN(C(=O)OC(C(F)(F)F)C(F)(F)F)C4)c21")
"> 1000 nM"
>>> result("O=C(OC(C(F)(F)F)C(F)(F)F)N1CCC2(CC1)CN(Cc1c(N3CCN(C4CC4)CC3)cccc1C(F)(F)F)C2")
"< 100 nM"
>>> result("O=C(OC(C(F)(F)F)C(F)(F)F)N1CCC2(CCCN2C(=O)c2ccn(Cc3ccccc3)n2)CC1")
"< 100 nM"
>>> result("Cc1c(C(=O)N2CCCC23CCN(C(=O)OC(C(F)(F)F)C(F)(F)F)CC3)[nH]c2ccc(Cl)cc12")
"< 100 nM"
>>> result("CC(=O)N(C)c1cnn(C(=O)N2CC3CN(Cc4ccc(C)cc4)CC3C2)c1 (stereo not drawn)")
"100 to 1000 nM"
>>> result("COc1cccc(CN2CC3CN(C(=O)n4cc(N(C)C(C)=O)cn4)CC3C2)c1 (stereo not drawn)")
"1000 to 10000 nM"
>>> result("O=C(OC(C(F)(F)F)C(F)(F)F)N1CCC2(CCCN2Cc2cc3ccccc3s2)CC1")
"< 100 nM"
>>> result("O=C(OC(C(F)(F)F)C(F)(F)F)N1CCC2(CCN(Cc3ccc(C(F)(F)F)cc3N3CCCCC3)CC2)C1")
"< 100 nM"
>>> result("CC(=O)N(C)c1cnn(C(=O)N2CCC3(CCN(Cc4ccccc4Cl)C3)CC2)c1")
"≤ 100 nM"
>>> result("CC(=O)N(C)c1cnn(C(=O)N2CC3CN(Cc4ccc5c(c4)OC(F)(F)O5)CC3C2)c1 (stereo not drawn)")
"≤ 100 nM"
>>> result("CC(=O)N(C)c1cnn(C(=O)N2CC3CN(Cc4cc(Cl)cc(OCc5ccccc5)c4)CC3C2)c1 (stereo not drawn)")
"≤ 100 nM"
>>> result("CC(=O)N(C)c1cnn(C(=O)N2CC3CN(Cc4ccc(Oc5cncnc5)cc4Cl)CC3C2)c1 (stereo not drawn)")
"≤ 100 nM"
>>> result("Cc1c(CN(C)C2(C)CCN(C(=O)OC(C(F)(F)F)C(F)(F)F)CC2)sc2ccccc12")
"100 to 1000 nM"
>>> result("CCN1CCN(c2cccc(Cl)c2CN2CC3(CCN(C(=O)OC(C(F)(F)F)C(F)(F)F)CC3)C2)CC1")
"< 100 nM"
>>> result("CC(=O)N(C)c1cnn(C(=O)N2CCN(Cc3ccc(N4CCCC4)cc3)CC2)c1")
"100 to 1000 nM"
>>> result("CC(=O)N(C)c1cnn(C(=O)N2CC3CN(Cc4cc(Cl)cc(N5CCCC5)c4)CC3C2)c1 (stereo not drawn)")
"≤ 100 nM"
>>> result("O=C(O)C1CCN(c2cc(CN3CC4(CCN(C(=O)OC(C(F)(F)F)C(F)(F)F)CC4)C3)cc(C(F)(F)F)c2)CC1")
"< 100 nM"
>>> result("CC(=O)N(C)c1cnn(C(=O)N2CCN(Cc3ccc(N4CCOCC4)cc3C)CC2)c1")
"100 to 1000 nM"
>>> result("O=C(OC(C(F)(F)F)C(F)(F)F)N1CCC2(CCCN2C(=O)c2ccc(C(F)(F)F)cc2)CC1")
"< 100 nM"
>>> result("CC(=O)N(C)c1cnn(C(=O)N2C[C@H]3C[C@H](N(Cc4ccccc4Cl)C(C)=O)C[C@H]3C2)c1")
"≤ 100 nM"
>>> result("CC(=O)N1CCCc2cccc(CN3CCC4(CC3)CN(C(=O)OC(C(F)(F)F)C(F)(F)F)C4)c21")
"< 100 nM"
>>> result("CS(=O)(=O)Nc1cnn(C(=O)N2CC3CN(Cc4ccc(N5CCCC5)cc4C(F)(F)F)CC3C2)c1 (stereo not drawn)")
"≤ 100 nM"
>>> result("O=C(OC(C(F)(F)F)C(F)(F)F)N1CCC2(CCCN2C(=O)c2cc3ccccc3s2)CC1")
"< 100 nM"
>>> result("CN1CCC2(CCN(c3cc(C(F)(F)F)ccc3CN3CCN(C(=O)OC(C(F)(F)F)C(F)(F)F)CC3)CC2)C1")
"< 100 nM"
>>> result("Cc1c(CN2CCCC23CCN(C(=O)OC(C(F)(F)F)C(F)(F)F)CC3)[nH]c2ccc(F)cc12")
"< 100 nM"
